Assay: soluble fraction after stress (log2 fold change); higher = more stays soluble; pooled small domains, quantitative proteomics
Details: stress: 50 degC
measured.attribute: soluble fraction (log2)
Lab note: record the figure alone, no unit after it.

Query: What measured soluble fraction (log2) goes with HMAAGVESLTEKEFAVASLVGGGASNREIAERLAMSERTVKSHLSSIFRKMDVRDRVQLALAMND ?
Response: 0.00815

Query: What measured soluble fraction (log2) goes with HMEVTENQEKHAYQEAMDQALRFLAPRFLSRAELTRKLLQKEHDRDVIDAVIDRLEELDYVDDAR ?
Response: 0.0309

Query: What measured soluble fraction (log2) goes with HMQRSVEDVFVQLRNGMDTYDMTQIEDALRILHGMELSTAQRDLLDKVQEAYNDLEYETGAALLAGFERIK ?
Response: 0.0317

Query: What measured soluble fraction (log2) goes with HMGTTLTKIPGIGENRARLLLRHFGSLRAVREADADALAAVKGMTRPAAEAIVRYFEQQDAEGRRD ?
Response: 0.21

---

Assay: soluble fraction after stress (log2 fold change); higher = more stays soluble; pooled small domains, quantitative proteomics
Details: stress: 50 degC
Record form. Attribute: soluble fraction (log2). Fill in for each entry.
Lab note: record the figure alone, no unit after it.

Query: What measured soluble fraction (log2) goes with HMSHSVLIDISQLRIGMYIQLDVGWMHHPFPVSSFRVASLEQIEALRTLNLAQVRYFPAKSDPV ?
Response: -3.6

Query: What measured soluble fraction (log2) goes with HMSVLNLQTDIPKKYTDVLGTSVKGRLNTLVHNVIINSVDRPVIQMSEEVHEAMQGLRIFMFENVYRNPV ?
Response: 0.0658

Query: What measured soluble fraction (log2) goes with HMIVVMKTSASERDLQEVIARIEQFGFATRSIVGSERATVSVLGAPLPDSLQEALERMPGVEEVVRITK ?
Response: -0.344

Query: What measured soluble fraction (log2) goes with HMVITATYTDFMDALEADEVKQVQFSSTEINYTIEKGGHVQYFKTGVVDNPQLPQILREKGVTYAAEIP ?
Response: -0.0375

---

Record form. Attribute: soluble fraction (log2). Fill in for each entry.
Assay: soluble fraction after stress (log2 fold change); higher = more stays soluble; pooled small domains, quantitative proteomics
Settings: stress: 50 degC

Query: What measured soluble fraction (log2) goes with HMEELIEMNGVVMEILPDSRYRVTLDNGHKLIAYTGGKMKKNHIRILAGDKVTLELSPYDINNGRITFRHI ?
Response: -1.28

Query: What measured soluble fraction (log2) goes with HMGAATQADIARVQELLNRLGYDAGSPDGLMGPRTRDAILEYQLTEGLETTGTVTRETLASLEARL ?
Response: 0.0823

Query: What measured soluble fraction (log2) goes with HMSVFGDNVARLRAEHGMSQRALAERLEITNGTVAAWESRDTLPDYDRIRQIAEIFDVPIPQLFAKYIP ?
Response: -1.66

Query: What measured soluble fraction (log2) goes with HMLKHSKQRDAIEQFLATRYDHPTAETVYMNLREEYPKLSLATVYRNLSLLAELGNIQKIPTGNGPDRFDG ?
Response: -0.555

Query: What measured soluble fraction (log2) goes with HMQNKYIIKQGNSGELVEVLQELLNLKQDGVFGPQTKKAVIAFQQKHKLVADGIVGPMSWRKLNFNPEELF ?
Response: -2.13

Query: What measured soluble fraction (log2) goes with HMYIVVPDLSKKDINEVANILAAQSLRFQVIDSANFRSDFPKNAVISQKPLAGSEVKVNKKIYLQLNPS ?
Response: -0.345

Query: What measured soluble fraction (log2) goes with HMPLDISDDSKAVLKLLKNDSNELNTVKSASGLSNKKWDKTIKELTKNKIVSVSKTEDGLYIHLI ?
Response: 0.202

Query: What measured soluble fraction (log2) goes with HMLQIADEYLDRLQALFEDVRDNHFAIGDLLVELVDMHDSRRVDVINYIAGRLAISPTTLYDYENTARR ?
Response: -0.792

---

Record form. Attribute: soluble fraction (log2). Fill in for each entry.
Test: soluble fraction after stress (log2 fold change); higher = more stays soluble; pooled small domains, quantitative proteomics
Conditions: stress: 50 degC
Lab note: record the figure alone, no unit after it.

Query: What measured soluble fraction (log2) goes with HMSREEFLAGLEEALAGEVPASVIRENLNYYNSYISQEMAKGRTVDEIVDEIGEPRIVARTIIDSSEAAGE ?
Response: 0.0724

Query: What measured soluble fraction (log2) goes with HMGRRRAAPQEPLRQFPASPVTGQPIKLLLGQYGPYVTDGTTNASLPKGSSPDELTFEQATQLLAERALRG ?
Response: 0.109

Query: What measured soluble fraction (log2) goes with HMSFNTNENKNLLWELMNKHNLFKDIDNQHYQEVQKLFEEEIVFISNNNKSLDLVEQNKKFLSSIITKLNK ?
Response: -1.41

Query: What measured soluble fraction (log2) goes with HMRVDLVQRLARHGLSPRQSAVAGGVLRGLDNGEISRQLYIAEQTVKDHLHEIYHRLGVHTRTELLIKVLG ?
Response: -1.6

Query: What measured soluble fraction (log2) goes with HMTSMTHLGRHPDSEISLDDISVSRRHAEIERQGHEYVLRDSGSLNGTYVNQQRVDSVVLQQGDEIL ?
Response: 0.234

Query: What measured soluble fraction (log2) goes with HMHPTDMKLTARLEEGAQFVRTQQLSKAIEIFTEVIKLDQNWAEAWNKRATVFYMMGKFKQSQEDIDKVLA ?
Response: -0.0571

Query: What measured soluble fraction (log2) goes with HMETYPINVETTGTNVLLRTGPSTSSNIIKTITDKGTVFLSIERGINSDWQKVVTPDGTIGYMSGKY ?
Response: 0.000612

Query: What measured soluble fraction (log2) goes with HMSDGYETLVNMAKPFLNNSKQITENDITDAVNTVSVMLKKRYDMTDEDIRKAVSELLHFYA ?
Response: -0.057

---

Experiment: soluble fraction after stress (log2 fold change); higher = more stays soluble; pooled small domains, quantitative proteomics
Conditions: stress: 50 degC
Label criterion not met if soluble fraction (log2) falls below -0.2; label criterion met in every other case.

Query: Could you verify whether the entry HMTTLTPIGKMKGEIDGDFEAFYLAVDKDGQVYLNRDPDYSENRYEKSRGWELVTREQLAVYEKELHFIP shows soluble fraction (log2) of no less than -0.2?
Response: criterion not met

Query: Could you verify whether the entry HMHRGTPASIIAAAKQYLTGGQTVELYEREGGPWTFRLRTYLSETPYPEKVRASVEALKPAGVVFLYELQS shows soluble fraction (log2) of no less than -0.2?
Response: criterion not met

Query: Could you verify whether the entry HMELSTQERIQILLEILNQREIISFSQTLRKKEGKKGVVVTFLASLELAKDGYVTLVQNKSDQIYLRSN shows soluble fraction (log2) of no less than -0.2?
Response: criterion not met

Query: Could you verify whether the entry HMRGLIEPLSQRELEVLMLMARGQSNAHIADQLNISENTIKWHGRNIFGKLGVSNRTEAVITSQEMGMLAT shows soluble fraction (log2) of no less than -0.2?
Response: criterion not met

Query: Could you verify whether the entry HMQALDETTVSRIRQKAAARNLLLKVLAGQLGVARPTLSNVLARREAPSAALAARIRAFLDSP shows soluble fraction (log2) of no less than -0.2?
Response: criterion not met

Query: Could you verify whether the entry HMIAGHLQEKKGFFYIVLSYPDAAGKRKTKWFPTKLSVKGNKKKAEVMLMDARKTFVPPETPL shows soluble fraction (log2) of no less than -0.2?
Response: criterion not met

Query: Could you verify whether the entry HMDKEKLQEKLLQIFEAEPQKKFQVQDLVKVLDMEGAGQFKFVVQALADLEHNKQIKLSEDDTFSLIVKE shows soluble fraction (log2) of no less than -0.2?
Response: criterion met

Query: Could you verify whether the entry HMNPNSIDEKLKLLSNREKEVAILVLKKLSYFEISEQLNITIRTVKAHTKNIYEKFNVSNRLAFLLLFN shows soluble fraction (log2) of no less than -0.2?
Response: criterion not met

Query: Could you verify whether the entry HMANGTVKWFNTTKGFGFIAPETGGKDVFVHISAVERSGLTGLADDQKVTFDVEAGRDGRESAVNLAL shows soluble fraction (log2) of no less than -0.2?
Response: criterion met

Query: Could you verify whether the entry HMQMSERENTILLTKRYIERGEYERAMNLLDSLLIKNALDEEALAMIDEIIALKAGASLQDFPRY shows soluble fraction (log2) of no less than -0.2?
Response: criterion not met

Query: Could you verify whether the entry HMGRFAETVEHIVAAQLARRQGIPTMEQFASFFNVSRATFQRRLGEEGETLEQIKQRVRLRLALELLHP shows soluble fraction (log2) of no less than -0.2?
Response: criterion not met

Query: Could you verify whether the entry HMRPTHYSGPSVIAMINNRVWFSDGSRLAPGEHHDDLEVVGLSPPWSAKVRWQGVEFDVGLFE shows soluble fraction (log2) of no less than -0.2?
Response: criterion not met

Query: Could you verify whether the entry HMKSQVVAYSDFVKAVNQKQINEVQIQGDKIRAINKAGEEITVTWLQNDQKLMDDLLDNNVKTIFLE shows soluble fraction (log2) of no less than -0.2?
Response: criterion met

Query: Could you verify whether the entry HMELSESLENYLVVIYEAHLRNEIARIKDMTASLSVKHTSAIDAIKKLEDLGIVNYEKRGFVKLTQSGIEK shows soluble fraction (log2) of no less than -0.2?
Response: criterion met

Query: Could you verify whether the entry HMEHDTVLSKVFRRLREAHVPLSLDDIYQGLRKTVNNNSEIREKIVTLQERGLVAEILGPKGGKKYVAKPT shows soluble fraction (log2) of no less than -0.2?
Response: criterion met

Query: Could you verify whether the entry HMGKAVTLEEARAIIQAKVPGASPDMIQIWEEHGDGRGRYEGELSYNNMKYEFEMDPKTGIIFDWNA shows soluble fraction (log2) of no less than -0.2?
Response: criterion not met

Query: Could you verify whether the entry HMVDQAFQTQLKNIQARTGKNLDELYAFIRASGLVKHGEIRDLAKRELSLGHGDANTLAKFYLESLAAAA shows soluble fraction (log2) of no less than -0.2?
Response: criterion met
